procedure text: Intravenous levodopa group of Example 10, levodopa plasma level
Assay type: in vivo
condition description: Sprague-Dawley, rat, plasma, 0.4 mg/kg, 0.4 mg levodopa/kg, time 0 h, individual rats 1-3 (Table C)

| smiles input | concentration at 0 h / ng/mL |
| --- | --- |
| N[C@@H](Cc1ccc(O)c(O)c1)C(=O)O | 0 |

###

procedure text: in vivo
condition description: rat, plasma, iv, 0.4 mg/kg, Plasma level (levodopa), 0.4 mg levodopa/kg, individual rats 1-3 (Table D)
result type: concentration at 0 h (ng/mL)

| compound | observed value |
| --- | --- |
| N[C@@H](Cc1ccc(O)c(O)c1)C(=O)O [Levodopa] | 0 |
